Items are presented alongside their recorded Kd.
Biological target: FGFR3 (Homo sapiens)
Construct: made in house; host or cells: E. coli derived from BL21, infected with T7 phage
Experiment: Kinase binding assay (kinase-tagged T7 phage, affinity beads, qPCR readout), FGFR3
Conditions: FGFR binding data
Procedure: Kinase-tagged T7 phage strains were prepared in an E. coli host derived from the BL21 strain. E. coli were grown to log-phase and infected with T7 phage and incubated with shaking at 32° C. until lysis. The lysates were centrifuged and filtered to remove cell debris. […] Test compounds were prepared as 111× stocks in 100% DMSO. Kds were determined using an 11-point 3-fold compound dilution series with three DMSO control points. […] The kinase concentration in the eluates was measured by qPCR. […]

Enquiry: What measured Kd goes with Cc1cn(-c2nc(Nc3cnn(C[C@@H](C)O)c3)ncc2F)c2ncc(NC(=O)/C=C/CN3CCOCC3)cc12 ?
Return: 100 to 250 nM

Enquiry: What measured Kd goes with C=CC(=O)Nc1ccc2c(-c3ccnc(Nc4cn(CC)nc4C)n3)cn(C)c2c1 ?
Return: 0.1 to 100 nM

Enquiry: What measured Kd goes with C=CC(=O)Nc1ccc2c(c1)c(C)cn2-c1nc(Nc2ccc(OCCN3CCOCC3)cc2)ncc1C ?
Return: 0.1 to 100 nM

Enquiry: What measured Kd goes with C=CC(=O)Nc1cc(C)c2c(c1)c(C)cn2-c1nc(Nc2cnn(C)c2)ncc1Cl [Example 71] ?
Return: > 1000 nM

Enquiry: What measured Kd goes with C=CC(=O)Nc1ccc2c(c1)c(C)cn2-c1nc(Nc2cn(C)cn2)ncc1Cl ?
Return: 0.1 to 100 nM

Next:
Enquiry: What measured Kd goes with C=CC(=O)Nc1ccc2c(-c3ccnc(Nc4ccc(N5CCOCC5)cc4)n3)cn(C)c2c1 ?
Return: 0.1 to 100 nM

Enquiry: What measured Kd goes with C=CC(=O)Nc1ccc2c(c1)c(C)cn2-c1nc(Nc2cnn(CC3(O)CC3)c2)ncc1F ?
Return: 0.1 to 100 nM

Enquiry: What measured Kd goes with C=CC(=O)Nc1ccc2c(-c3nc(Nc4cc(C)nn4C)ncc3Cl)cn(C)c2c1 ?
Return: 0.1 to 100 nM

---

Biological target: FGFR3 (Homo sapiens, UniProt P22607)
Construct: made in house; host or cells: E. coli derived from BL21, infected with T7 phage
Sequence (P22607 23-806): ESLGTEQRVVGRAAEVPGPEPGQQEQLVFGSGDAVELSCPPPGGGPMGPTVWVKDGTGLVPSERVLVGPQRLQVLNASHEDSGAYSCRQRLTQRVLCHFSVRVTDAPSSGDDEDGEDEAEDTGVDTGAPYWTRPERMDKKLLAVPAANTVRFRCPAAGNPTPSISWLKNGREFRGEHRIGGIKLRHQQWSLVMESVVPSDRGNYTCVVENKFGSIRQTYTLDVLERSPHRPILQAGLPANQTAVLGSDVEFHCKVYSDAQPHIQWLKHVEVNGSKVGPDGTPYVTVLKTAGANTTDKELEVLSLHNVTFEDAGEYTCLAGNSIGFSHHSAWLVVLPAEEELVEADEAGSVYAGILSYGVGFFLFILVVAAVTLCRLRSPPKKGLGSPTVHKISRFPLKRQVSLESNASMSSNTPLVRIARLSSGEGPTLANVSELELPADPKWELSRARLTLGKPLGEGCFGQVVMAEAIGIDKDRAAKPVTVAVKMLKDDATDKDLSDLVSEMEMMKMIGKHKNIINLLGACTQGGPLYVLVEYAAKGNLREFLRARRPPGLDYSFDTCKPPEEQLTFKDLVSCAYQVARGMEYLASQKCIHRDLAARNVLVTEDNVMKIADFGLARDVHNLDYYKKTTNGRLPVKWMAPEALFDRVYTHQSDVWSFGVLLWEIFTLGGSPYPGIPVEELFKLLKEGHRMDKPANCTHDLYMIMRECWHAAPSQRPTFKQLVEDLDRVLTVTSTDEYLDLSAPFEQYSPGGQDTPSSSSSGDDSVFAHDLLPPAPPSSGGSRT
Assay: Kinase binding assay (kinase-tagged T7 phage, affinity beads, qPCR readout), FGFR3
Settings: FGFR binding data
Experimental: Kinase-tagged T7 phage strains were prepared in an E. coli host derived from the BL21 strain. E. coli were grown to log-phase and infected with T7 phage and incubated with shaking at 32° C. until lysis. The lysates were centrifuged and filtered to remove cell debris. […] Test compounds were prepared as 111× stocks in 100% DMSO. Kds were determined using an 11-point 3-fold compound dilution series with three DMSO control points. […] The kinase concentration in the eluates was measured by qPCR. […]
Items are presented alongside their recorded Kd.

Enquiry: What measured Kd goes with C=CC(=O)Nc1ccc2c(c1)c(C)cn2-c1nc(Nc2cnn(C)c2)ncc1C#N ?
Return: 0.1 to 100 nM

Next:
Enquiry: What measured Kd goes with C=CC(=O)Nc1ccc2c(c1)c(C)cn2-c1nc(Nc2cn(C)nc2C)ncc1F ?
Return: 0.1 to 100 nM

Enquiry: What measured Kd goes with C=CC(=O)Nc1ccc2c(c1)c(C)cn2-c1ccnc(Nc2cnn(C)c2)n1 ?
Return: 0.1 to 100 nM

Enquiry: What measured Kd goes with C=CC(=O)Nc1ccc2c(c1)c(C)cn2-c1nc(Nc2cnn(CC(C)OC)c2)ncc1F (centres unmarked) ?
Return: 0.1 to 100 nM

Enquiry: What measured Kd goes with C=CC(=O)Nc1ccc2c(c1)c(C)cn2-c1nc(Nc2cccc(N3CCN(C)CC3)c2)ncc1Cl ?
Return: 0.1 to 100 nM

Enquiry: What measured Kd goes with C=CC(=O)Nc1ccc2c(c1)c(C)cn2-c1nc(Nc2cnn(C[C@@H](C)O)c2)ncc1F ?
Return: 0.1 to 100 nM

Enquiry: What measured Kd goes with C=CC(=O)Nc1ccc2c(c1)c(C)cn2-c1nc(Nc2cnn(CCO)c2)ncc1Cl ?
Return: 0.1 to 100 nM

Enquiry: What measured Kd goes with Cc1cnc(Nc2cn(C)nc2C)nc1-n1cc(C)c2cc(NC(=O)/C=C/CN(C)C)cnc21 ?
Return: 0.1 to 100 nM

Enquiry: What measured Kd goes with C=CC(=O)Nc1ccc2c(c1)c(C)cn2-c1nc(Nc2cnn(CCOC(C)C)c2)ncc1F ?
Return: 0.1 to 100 nM

Enquiry: What measured Kd goes with C=CC(=O)Nc1ccc2c(-c3nc(Nc4ccnn4C)ncc3Cl)cn(C)c2c1 ?
Return: 0.1 to 100 nM

Enquiry: What measured Kd goes with C=CC(=O)N(C)c1ccc2c(c1)c(C)cn2-c1nc(Nc2ccnn2C)ncc1C ?
Return: > 1000 nM
